# TARGET_OR_SYSTEM: UniProt P25963
# Sequence (whole entry): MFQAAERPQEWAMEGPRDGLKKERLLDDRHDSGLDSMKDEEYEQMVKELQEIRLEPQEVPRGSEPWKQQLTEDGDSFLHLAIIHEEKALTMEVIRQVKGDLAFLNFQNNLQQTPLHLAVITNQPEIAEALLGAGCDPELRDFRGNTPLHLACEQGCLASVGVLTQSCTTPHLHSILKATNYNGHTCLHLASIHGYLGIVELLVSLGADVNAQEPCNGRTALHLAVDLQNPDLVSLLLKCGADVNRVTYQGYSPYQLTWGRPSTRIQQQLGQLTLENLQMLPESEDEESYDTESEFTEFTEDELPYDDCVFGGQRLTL
# PROTOCOL_DESCRIPTION: Inhibition of TNFalpha-induced IkappaBalpha (unknown origin) degradation expressed in human HeLa cells at 50 uM pretreated […] before TNFalpha addition […] by ELISA
# Format: cell-based
EXPERIMENTAL_ENDPOINT: inhibition (%)
Provide only the numeric value, understood in %.

# inhibition measured on UniProt P25963 for item C[C@@]12C[C@H]3OC(=O)[C@]1(O)CO[C@]14O[C@@]5([C@H]2C1=O)[C@@]3(C)OC(=O)[C@@]5(O)CC[C@H]1[C@H]4C[C@H]2O[C@]23CC=CC(=O)[C@]13C [25-HYDROXY PHYSALIN F] = 29

The value of inhibition recorded for "C[C@]12C(=O)C=CCC1=CC[C@@H]1[C@@H]2CC[C@]2(O)C(=O)O[C@@]3(C)[C@H]4C[C@]5(C)[C@@H](CO[C@@]16O[C@@]32[C@H]5C6=O)C(=O)O4" when tested on UniProt P25963 reads 7

The measured inhibition that "C=C1C(=O)O[C@@H]2C[C@@]1(C)[C@@H]1C(=O)[C@]3(O)O[C@]14[C@@]2(C)OC(=O)[C@@]4(O)CC[C@H]1[C@H]3[C@H](O)C=C2CC=CC(=O)[C@@]21C" showed for UniProt P25963 is -3.4

Value sought: inhibition, system UniProt P25963, item "C[C@]12C(=O)C=CCC1=C[C@@H](O)[C@@H]1[C@@H]2CC[C@@]2(O)C(=O)O[C@@]3(C)[C@H]4C[C@]5(C)[C@@H](CO[C@@]16O[C@]23[C@H]5C6=O)C(=O)O4" . Result: -3.8

Response field inhibition (UniProt P25963) for item CC1=C(C)C(=O)O[C@@H]([C@](C)(O)[C@]2(O)CC[C@@]3(O)[C@@H]4C[C@H]5O[C@]56CC=CC(=O)[C@]6(C)[C@H]4CC[C@]23C)C1 [WITHANOLIDE E] : 46.8

With UniProt P25963 as the test system, "C[C@@]12C[C@H]3OC(=O)[C@@H]1CO[C@]14O[C@]5([C@H]2C1=O)[C@@](O)(CC[C@H]1[C@H]4C[C@H]2O[C@]24CC=CC(=O)[C@]14C)C(=O)O[C@@]35C" showed inhibition of 45.2

# lookup: "C=C1C(=O)O[C@@H]2C[C@@]1(C)[C@@H]1C(=O)[C@]3(O)O[C@]14[C@@]2(C)OC(=O)[C@@]4(O)CC[C@H]1[C@H]3CC=C2CC=CC(=O)[C@@]21C" on UniProt P25963, inhibition = 0.8

Where do these numbers come from? They come from ChEMBL document CHEMBL2406967.
